System: Bacillus subtilis
Test: Antibacterial activity against Bacillus subtilis ATCC 6633 assessed as bacterial growth inhibition incubated for 48 hrs by resazurin microtiter assay
Format: functional
I'd be grateful if you could share measured MIC for these entries.

What MIC value was documented for this compound, COC(=O)[C@H](CC(C)C)NC(=O)/C(=C1/OC(=O)C(c2ccccc2)=C1O)c1ccccc1 ?
> 100 µg/mL

What MIC value was documented for this compound, COC(=O)[C@@H](Cc1ccccc1)NC(=O)/C(=C1/OC(=O)C(c2ccccc2)=C1O)c1ccccc1 ?
50 µg/mL

What MIC value was documented for this compound, CC(C)C[C@H](NC(=O)/C(=C1/OC(=O)C(c2ccccc2)=C1O)c1ccccc1)C(=O)O ?
> 100 µg/mL

What MIC value was documented for this compound, COC(=O)[C@H](Cc1ccccc1)NC(=O)/C(=C1/OC(=O)C(c2ccccc2)=C1O)c1ccccc1 ?
50 µg/mL

What MIC value was documented for this compound, O=C1OC2=C(c3ccccc3)C(=O)OC2=C1c1ccccc1 [PULVINIC DILACTONE] ?
> 100 µg/mL

What MIC value was documented for this compound, O=C1O/C(=C(/C(=O)O)c2ccccc2)C(O)=C1c1ccccc1 [PULVIC ACID] ?
> 100 µg/mL

====

I'd be grateful if you could share measured MIC for these entries.
System: Bacillus subtilis
Test: Antibacterial activity against Bacillus subtilis ATCC 6633 assessed as bacterial growth inhibition incubated for 48 hrs by resazurin microtiter assay
Assay type: functional
Give the value in mg/L but do not write mg/L after it.

What MIC value was documented for this molecule, O=C1O/C(=C(/C(=O)N[C@@H](Cc2ccccc2)C(=O)O)c2ccccc2)C(O)=C1c1ccccc1 ?
100

What MIC value was documented for this molecule, NC(=O)/C(=C1/OC(=O)C(c2ccccc2)=C1O)c1ccccc1 ?
50

What MIC value was documented for this molecule, COC(=O)[C@@H](CC(C)C)NC(=O)/C(=C1/OC(=O)C(c2ccccc2)=C1O)c1ccccc1 ?
50

What MIC value was documented for this molecule, CN(C)[C@@H]1C(O)=C(C(N)=O)C(=O)[C@@]2(O)C(O)=C3C(=O)c4c(O)cccc4[C@@](C)(O)[C@H]3C[C@@H]12 [TETRACYCLINE] ?
6.3

====

Tested on: Candida albicans
Assay: Antifungal activity against Candida albicans ATCC 10231 assessed as bacterial growth inhibition incubated for 48 hrs by bromocresol green based broth dilution assay
Type: functional
MEASUREMENT NAME: MIC

What MIC value was documented for this molecule, CN(CC[C@H](N)CC(=O)N[C@H]1C=C[C@H](n2ccc(N)nc2=O)O[C@@H]1C(=O)O)C(=N)N.Cl ?
> 200 µg/mL

What MIC value was documented for this molecule, O=C1O/C(=C(/C(=O)N[C@@H](Cc2ccccc2)C(=O)O)c2ccccc2)C(O)=C1c1ccccc1 ?
> 200 µg/mL

What MIC value was documented for this molecule, O=C1O/C(=C(/C(=O)O)c2ccccc2)C(O)=C1c1ccccc1 ?
> 100 µg/mL

What MIC value was documented for this molecule, O=C1OC2=C(c3ccccc3)C(=O)OC2=C1c1ccccc1 ?
> 100 µg/mL

What MIC value was documented for this molecule, NC(=O)/C(=C1/OC(=O)C(c2ccccc2)=C1O)c1ccccc1 ?
200 µg/mL

Source of measurements: ChEMBL document CHEMBL5252610
